Test: serum concentration in remnant kidney mice
Assay type: in vivo
Conditions: 129/SvEv, mouse, week 4 of dosing, 24 hours after a 10 mg/kg oral dose, once daily
Endpoint name: concentration at 24 h (µg/mL)
Numbers only, in µg/mL.

Query: What value of concentration at 24 h has been reported for the following molecule? Cc1cc(OCc2c(-c3ccccc3OC(F)(F)F)noc2C2CC2)ccc1-c1ccc2c(C(=O)O)csc2c1 [compound of Formula I]
Result: 0.049
